Test system: LOX IMVI melanoma
Assay: NCI-60 one-dose screen, 48 h (100 = growth as untreated, 0 = no growth, -100 = all killed)
Conditions: 10 µM unless noted
This is part of a sample that, as a whole, favours compounds with a hit. Of some 83,000 tested, about 20% had one in any assay.
Grouping by measured growth is done with the following cut points: one = under 50%, two = from 50% up to 90%, three = 90% and over

molecule	assigned-label
Cc1nc2cncc(C#Cc3cncc(C(=O)Nc4ccc(CN5CCN(C)CC5)c(C(F)(F)F)c4)c3)c2nc1C	one
CN(CCCCCl)P(=O)(OCc1ccc([N+](=O)[O-])o1)C(F)(F)C[C@H](NC(=O)CNC(=O)c1ccc(N=[N+]=[N-])cc1)C(=O)NCCc1ccc(O)cc1 (some centres undefined)	two
CCOC(=O)c1cn2c3c(cc(C)cc3c1=O)C(=O)/C(=C/c1ccccc1)C2	three
COc1ccc(/C=C2\Oc3cc(OCCCN4CCCC4)ccc3C2=O)c(OC)c1	one
CC(=O)OC[C@]12CC[C@H]3[C@@H](C[C@H]4O[C@]45CC=CC(=O)[C@]35C)[C@]1(O)CC[C@@]2(O)[C@@](C)(O)C1CC(C)=C(C)C(=O)O1 (some centres undefined)	one
O=c1[nH]c(NCc2ccccc2)nc2nc(Nc3ccc(NC(=S)Nc4ccccc4)cc3)nc(-c3ccc(O)cc3O)c12	three
O=C(/C=C\c1cccc([N+](=O)[O-])c1)/C=C/c1cccc([N+](=O)[O-])c1	one
CCO/C=N/C1=C(C#N)C(c2ccc(Cl)cc2)c2c(c3ccc(C)cc3[nH]c2=O)O1 (centres undefined)	two
O=S1(=O)CCC(N(/N=C/c2ccco2)c2ccccc2)C1 (centres undefined)	three
COc1ccc(C(=O)c2cc(OC)c3c(c2)OCO3)cc1O	one
COc1cccc(-c2nc3sccn3c2-c2ccnc(NCCCNS(=O)(=O)c3ccc(F)cc3)c2)c1	one
CCN(CC)c1ccc(CNc2ccnc3ccccc23)cc1	two
Cc1cccc(/C=N/Nc2cc(C)c3cccc(C)c3n2)n1	three
CC(=O)c1cc2c(N)c(C(=O)Nc3cccc4c3OCCO4)sc2nc1C	three
